# tested-target: CaV3.1 (Homo sapiens, UniProt O43497)
# Construct: expressed in transfected cells; host or cells: unnamed doxycycline-inducible cell line
# Sequence (O43497 whole entry): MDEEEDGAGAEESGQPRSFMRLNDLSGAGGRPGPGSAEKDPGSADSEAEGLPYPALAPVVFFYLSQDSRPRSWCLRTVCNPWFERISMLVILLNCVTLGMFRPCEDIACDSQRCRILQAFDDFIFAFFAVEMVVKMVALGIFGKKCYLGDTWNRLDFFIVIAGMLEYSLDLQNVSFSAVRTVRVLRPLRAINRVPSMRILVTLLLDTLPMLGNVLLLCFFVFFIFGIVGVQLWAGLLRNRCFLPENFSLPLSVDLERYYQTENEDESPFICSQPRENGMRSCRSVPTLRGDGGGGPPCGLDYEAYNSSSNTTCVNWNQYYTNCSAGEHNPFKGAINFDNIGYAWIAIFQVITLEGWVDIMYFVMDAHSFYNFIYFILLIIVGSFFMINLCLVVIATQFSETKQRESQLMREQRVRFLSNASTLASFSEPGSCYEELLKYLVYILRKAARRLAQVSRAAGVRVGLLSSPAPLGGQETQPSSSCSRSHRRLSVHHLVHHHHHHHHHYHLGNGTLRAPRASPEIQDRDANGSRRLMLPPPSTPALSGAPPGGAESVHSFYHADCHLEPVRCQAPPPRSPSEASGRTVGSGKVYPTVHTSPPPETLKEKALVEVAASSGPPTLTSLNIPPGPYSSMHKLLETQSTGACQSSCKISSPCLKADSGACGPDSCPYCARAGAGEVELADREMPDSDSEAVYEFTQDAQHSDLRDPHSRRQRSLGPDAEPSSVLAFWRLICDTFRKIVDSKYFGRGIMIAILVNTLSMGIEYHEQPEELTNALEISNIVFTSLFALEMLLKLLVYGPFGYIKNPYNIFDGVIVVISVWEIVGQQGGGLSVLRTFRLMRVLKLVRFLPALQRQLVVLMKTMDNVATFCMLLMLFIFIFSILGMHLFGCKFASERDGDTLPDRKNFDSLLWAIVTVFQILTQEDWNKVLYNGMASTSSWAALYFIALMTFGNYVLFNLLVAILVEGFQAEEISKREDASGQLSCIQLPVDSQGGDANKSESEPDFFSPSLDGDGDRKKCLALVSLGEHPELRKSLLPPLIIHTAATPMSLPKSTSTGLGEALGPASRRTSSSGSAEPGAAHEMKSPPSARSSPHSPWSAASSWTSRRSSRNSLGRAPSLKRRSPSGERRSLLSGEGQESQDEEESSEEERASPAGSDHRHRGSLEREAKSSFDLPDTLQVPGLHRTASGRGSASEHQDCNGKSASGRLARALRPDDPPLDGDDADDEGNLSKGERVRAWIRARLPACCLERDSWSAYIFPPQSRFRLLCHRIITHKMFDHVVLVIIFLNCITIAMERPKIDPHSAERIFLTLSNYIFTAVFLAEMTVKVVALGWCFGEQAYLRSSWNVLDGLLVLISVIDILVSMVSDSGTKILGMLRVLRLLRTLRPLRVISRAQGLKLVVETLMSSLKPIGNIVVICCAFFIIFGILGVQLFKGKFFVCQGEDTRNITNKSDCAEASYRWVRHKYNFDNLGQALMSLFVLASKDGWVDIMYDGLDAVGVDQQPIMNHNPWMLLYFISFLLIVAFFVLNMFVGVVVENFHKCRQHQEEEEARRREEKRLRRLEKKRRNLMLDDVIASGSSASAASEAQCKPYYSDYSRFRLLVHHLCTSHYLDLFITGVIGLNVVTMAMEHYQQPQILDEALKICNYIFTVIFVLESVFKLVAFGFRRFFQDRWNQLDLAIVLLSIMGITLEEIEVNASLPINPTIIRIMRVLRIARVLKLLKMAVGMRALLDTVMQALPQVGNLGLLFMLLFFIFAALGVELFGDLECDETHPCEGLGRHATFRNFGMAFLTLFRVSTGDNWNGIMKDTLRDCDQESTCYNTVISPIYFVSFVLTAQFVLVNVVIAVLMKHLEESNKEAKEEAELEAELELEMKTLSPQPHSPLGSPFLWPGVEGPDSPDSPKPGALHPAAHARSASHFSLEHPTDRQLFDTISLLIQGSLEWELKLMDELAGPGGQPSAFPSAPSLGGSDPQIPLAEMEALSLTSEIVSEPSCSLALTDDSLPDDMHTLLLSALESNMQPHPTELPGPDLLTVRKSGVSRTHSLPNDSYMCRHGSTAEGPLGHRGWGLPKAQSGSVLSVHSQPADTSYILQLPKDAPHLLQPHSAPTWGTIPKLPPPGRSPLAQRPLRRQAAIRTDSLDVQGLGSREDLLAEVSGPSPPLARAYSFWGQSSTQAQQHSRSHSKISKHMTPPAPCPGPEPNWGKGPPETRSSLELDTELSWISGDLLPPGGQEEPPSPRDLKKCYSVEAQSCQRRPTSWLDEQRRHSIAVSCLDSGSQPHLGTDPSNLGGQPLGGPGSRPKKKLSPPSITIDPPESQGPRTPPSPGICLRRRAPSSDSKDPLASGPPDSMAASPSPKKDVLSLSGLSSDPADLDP
# assay-method-text: High-throughput CaV3.1 T-type FLIPR fluorescent assay
# Format: cell-based
# measurement-parameters: Table 4; Fluo-4 FLIPR
observable: IC50 (nM)

Worked cases, IC50 given:
> print(dat)
                                smiles.text                          tested.target  observable  units.label  result.value
1  O=C(NCc1cccc(S(=O)(=O)c2cccc(C(F)(F)F)c2)c1)c1ccnn1CC(F)(F)F  CaV3.1 (Homo sapiens, UniProt O43497)        IC50           nM          1850
2  O=C(NCc1ccccc1S(=O)(=O)c1cccc(C(F)(F)F)c1)c1cc(F)cc(Cl)c1  CaV3.1 (Homo sapiens, UniProt O43497)        IC50           nM          1420

[A] CC(C)S(=O)(=O)c1cc(C(F)(F)F)cnc1C(=O)NCc1ccc(S(=O)(=O)c2cccc(C(F)(F)F)c2)cc1
[B] N[C@H](C(=O)NCc1ccc(S(=O)(=O)c2cccc(C(F)(F)F)c2)cc1)c1ccccc1
[ask] Between item A and item B , which reported IC50 is smaller? Your choice should be expressed through its label.
[reply] A
(A: 920 nM, B: 3640 nM)
